src = patent US20090118135A1

- TGT: GST-Bfl-1 (Homo sapiens)
- Construct: lacking their C-terminal transmembrane domains (about the last 20 amino acids) (“ΔTM”); made in house; host or cells: XL-1 Blue E. coli, pGEX 4T-1
- PROCEDURE_DETAILS: Bfl-1/FITC-Bid BH3 competitive fluorescence polarization assay
- Type: binding
- TEST_PARAMETERS: primary HTS hits, MLSCN library (PubChem SIDs), Table 5B
READOUT: % Activity (%)
The reply should be a number in %, with the unit left off.

Would you please look over these solved cases?
COMPOUND: Nc1cc2nsnc2cc1Br
READING_UNIT: %
% Activity: 58.5
--
COMPOUND: Cc1ccc2cccc(S(=O)(=O)Nc3ccc4c(c3)OCO4)c2n1
READING_UNIT: %
% Activity: 80.6
--
COMPOUND: Cc1cccc2cc(C(c3nnnn3C(C)(C)C)N(Cc3ccco3)CC3CCCO3)c(O)nc12 (centres unmarked)
READING_UNIT: %
% Activity: 64.5
--
COMPOUND: COc1ccccc1-c1nnc2sc(-c3cnccn3)nn12
READING_UNIT: %
% Activity: 75.3
--
COMPOUND: CN(C)CCSc1nc(N)c2c3c(sc2n1)CN(C)CC3
READING_UNIT: %
% Activity: 72.8

Task: For Cc1ccc(O)c(/N=C/C2=C(O)c3ccccc3C2=O)c1 , what is its reported % Activity?
Output: 56

Task: What does the record list as % Activity for O=C(Nc1ccc2nc(-c3ccco3)c(-c3ccco3)nc2c1)N1CCCCCC1 ?
Output: 83.2

Task: # lookup: % Activity of C[C@@H](C(=O)Nc1nc(-c2ccccn2)cs1)N1C(=O)C2CCCCC2C1=O (some centres unmarked)
Output: 51.1

Task: Any idea what % Activity was measured for O=C1CCCC2=C1C(c1ccco1)Nc1ccc3ccccc3c12 (centres unmarked) ?
Output: 52.2

Task: Please report the recorded % Activity for CCOC(=O)N1CCN(c2cc(NCCC(=O)O)c3c4c(onc24)-c2ccccc2C3=O)CC1 .
Output: 78.1

Task: Given the entry COc1ccc(OC)c(N2C(=O)[C@@H]3C(c4ccccc4Cl)=NO[C@@H]3C2=O)c1 , report its measured % Activity.
Output: 68.5

Task: Record request: % Activity value, item CCN(CC)CCc1c(C)[nH]c(C(=O)OCc2ccccc2)c1C
Output: 70.8

Task: Quick one: % Activity of O=c1oc2c3c4c(cc2s1)CCCN4CCC3 ?
Output: 66.9

Task: Tell me the measured % Activity of CN(C)c1ccc(NC(=O)Cn2cc3c(n2)CCCC3)cc1 , please.
Output: 57.6

Task: Look up % Activity: CC(=O)C1=C(C)OC(N)=C(C#N)C1c1ccco1 (centres unmarked)
Output: 65.4

Task: Give its % Activity value. Item: O=C(C[n+]1ccc(C(=O)N/N=C/c2ccc(O)cc2)cc1)c1ccccc1
Output: 57.9

Task: % Activity for CCn1c(SCC(=O)O)nc2sc3c(c2c1=O)CCC3 ?
Output: 83

====

- TGT: GST-Bcl-B (Homo sapiens, UniProt Q9HD36)
- Sequence (Q9HD36 1-182 limits assumed): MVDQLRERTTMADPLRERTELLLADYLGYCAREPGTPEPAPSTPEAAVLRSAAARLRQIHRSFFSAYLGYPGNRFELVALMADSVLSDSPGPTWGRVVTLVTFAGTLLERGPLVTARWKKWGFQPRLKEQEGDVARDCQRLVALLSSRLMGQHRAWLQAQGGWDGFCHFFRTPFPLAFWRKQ
- PROCEDURE_DETAILS: Bcl-B/FITC-TR3-r8 fluorescence polarization competition (displacement) assay, HTS and dose-response
- TEST_PARAMETERS: Table 8, NCI Structural library; Binding Assay, FP; Concentration 0.02 uM
The reader will find reported F Ratio values listed item by item below.
Keep it simple and answer with nothing but the number.

Example entries and their recorded answers appear below.
STRUCTURE_STRING: O=[N+]([O-])c1cc(Cc2cc([N+](=O)[O-])c3cccnc3c2O)c(O)c2ncccc12
F Ratio: 0.1969
//
STRUCTURE_STRING: C[C@]12CC[C@H]3[C@@H](CCC4=CC(=O)CC[C@@]43C)[C@@H]1CC[C@@H]2C(=O)COS(=O)(=O)c1ccc(Br)cc1
F Ratio: 0.2647

Below: the item to evaluate.
Task: What value of measured F Ratio is listed for Nc1nc(N)c(/N=N/c2ccc(C(=O)O)c(O)c2)c(N)n1 ?
Output: 0.2954

====

- TGT: GST-Bfl-1 (Homo sapiens)
- Construct: lacking their C-terminal transmembrane domains (about the last 20 amino acids) (“ΔTM”); made in house; host or cells: XL-1 Blue E. coli, pGEX 4T-1
- PROCEDURE_DETAILS: Bfl-1/FITC-Bid BH3 competitive fluorescence polarization assay
- Type: binding
- TEST_PARAMETERS: primary HTS hits, MLSCN library (PubChem SIDs), Table 5B
Each record here notes measured % Activity.
Remember to follow the number with its unit.

COMPOUND: CCOc1ccc(C(=O)Nc2ccc(N3CCN(C)CC3)cc2)cc1Br
% Activity: 70%
--
COMPOUND: Cn1c(=N)c(S(=O)(=O)c2ccccc2)cc2c(=O)n3ccccc3nc21
% Activity: 50.4%
--
COMPOUND: CC(=O)c1ccc(NC(=O)c2ccc3nc(-c4ccco4)c(-c4ccco4)nc3c2)cc1
% Activity: 59.5%
--
COMPOUND: CCOC(=O)C1=C(C)S/C(=C\N(C)C)C1=O
% Activity: 68.4%
--
COMPOUND: O=C(Nc1ccccc1)c1ccc2nc(-c3ccco3)c(-c3ccco3)nc2c1
% Activity: 52.2%

Task: Give its % Activity value. Item: CC(=O)C1=C(O)C(=O)N(Cc2ccccc2)C1c1ccco1 (stereo not drawn)
Output: 52.6%

Task: Suppose we examine the compound Nc1nc(-c2ccco2)nn1C(=O)CCc1ccccc1 ; what % Activity value has been reported?
Output: 63.2%

Task: // lookup % Activity for O=C(COC(=O)CN1C(=O)c2ccccc2C1=O)Nc1ncc(Cl)cc1Cl
Output: 58.7%

====

- TGT: GST-Bfl-1 (Homo sapiens)
- Construct: lacking their C-terminal transmembrane domains (about the last 20 amino acids) (“ΔTM”); made in house; host or cells: XL-1 Blue E. coli, pGEX 4T-1
- PROCEDURE_DETAILS: Bfl-1/FITC-Bid BH3 competitive fluorescence polarization assay
- Format: binding
- TEST_PARAMETERS: primary HTS hits, MLSCN library (PubChem SIDs), Table 5B
Listed here: items and their measured % Activity.

MOLECULE: COc1ccc(C(=O)Nc2ccc(N3CCCC3)cc2)cc1 [Compound 14739290]
% Activity: 78.8%
//
MOLECULE: CSc1nc2n(n1)C(c1ccccn1)C1=C(O)CC(C)(C)CC1=N2 (centres unmarked) [Compound 14742716]
% Activity: 61.8%

Task: For the molecule shown here, c1cc2c3c(cccc3c1)NC1(CCCCCC1)N2 [Compound 4263637] , give the reported % Activity.
Output: 64.3%

====

- TGT: GST-Bfl-1 (Homo sapiens, UniProt Q16548)
- Construct: lacking their C-terminal transmembrane domains (about the last 20 amino acids) (“ΔTM”); made in house; host or cells: XL-1 Blue E. coli, pGEX 4T-1
- Sequence (Q16548 1-155 limits assumed): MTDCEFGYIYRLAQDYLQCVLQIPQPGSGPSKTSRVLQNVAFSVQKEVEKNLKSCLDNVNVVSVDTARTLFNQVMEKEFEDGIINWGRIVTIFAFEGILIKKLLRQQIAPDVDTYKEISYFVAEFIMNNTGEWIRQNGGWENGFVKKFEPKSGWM
- PROCEDURE_DETAILS: Bfl-1/FITC-Bid BH3 competitive fluorescence polarization assay
- Assay type: binding
- TEST_PARAMETERS: primary HTS hits, MLSCN library (PubChem SIDs), Table 5B
Field: class. Source value: FRatio. Ranges: band A: < 0.8; band B: ≥ 0.8 and < 0.9; band C: ≥ 0.9

Task: // bin(item) where item = O=S(=O)(c1ccccc1)N(CC(O)CN1CCCCC1)c1ccccc1 (stereo not shown)
Output: band C

====

- TGT: GST-Bcl-B (Homo sapiens, UniProt Q9HD36)
- PROCEDURE_DETAILS: Bcl-B/FITC-TR3-r8 fluorescence polarization competition (displacement) assay, HTS and dose-response
- TEST_PARAMETERS: Table 8, NCI Structural library; Binding Assay, FP; Concentration 0.02 uM
READOUT: F Ratio

Worked cases, F Ratio given:
STRUCTURE_STRING: CC(=O)O.Cc1c2cc[n+](CCN3CCCCC3)cc2c(C)c2c1[nH]c1ccc(O)cc12
TGT: GST-Bcl-B (Homo sapiens, UniProt Q9HD36)
RESULT: 0.3973
--
STRUCTURE_STRING: O=C(O)c1cccc(/N=N/c2c(S(=O)(=O)O)ccc3c2C(=O)c2ccccc2C3=O)c1O
TGT: GST-Bcl-B (Homo sapiens, UniProt Q9HD36)
RESULT: 0.2215

Could you now consider this next molecule?
Task: Requested field: F Ratio. Item: Cc1nn(-c2ccc(S(=O)(=O)O)cc2)c(O)c1/N=N/c1ccc(-c2ccc(/N=N/c3ccc4c(S(=O)(=O)O)cc(S(=O)(=O)O)c(N)c4c3O)c(O)c2)cc1O
Output: 0.08966
